- System: HeLa Kyoto;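 further: synchronized HeLa Kyoto cells (double thymidine block for G1/S, nocodazole release for mitosis), protein amounts in NP-40 versus SDS lysates quantified by mass spectrometry, three biological replicates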
- ASSAY NAME: solubility change mitosis vs G1/S (difference of NP-40 vs SDS log2 ratios) (log2 ratio difference); higher = more soluble in mitosis
Class fulfilled: solubility change mitosis (log2) at least 0.1. Class not fulfilled: solubility change mitosis (log2) below 0.1.

| RESIDUES | CLASS NAME |
| --- | --- |
| MRKIDLCLSSEGSEVILATSSDEKHPPENIIDGNPETFWTTTGMFPQEFIICFHKHVRIERLVIQSYFVQTLKIEKSTSKEPVDFEQWIEKDLVHTEGQLQNEEIVAHDGSATYLRFIIVSAFDHFASVHSVSAEGTVVSNLSS [HSPB11] | not fulfilled |
| MMATPNQTACNAESPVALEEAKTSGAPGSPQTPPERHDSGGSLPLTPRMESHSEDEDLAGAVGGLGWNSRSPRTQSPGGCSAEAVLARKKHRRRPSKRKRHWRPYLELSWAEKQQRDERQSQRASRVREEMFAKGQPVAPYNTTQFLMNDRDPEEPNLDVPHGISHPGSSGESEAGDSDGRGRAHGEFQRKDFSETYERFHTESLQGRSKQELVRDYLELEKRLSQAEEETRRLQQLQACTGQQSCRQVEELAAEVQRLRTENQRLRQENQMWNREGCRCDEEPGT [HEXIM2] | fulfilled |
| MHRDSCPLDCKVYVGNLGNNGNKTELERAFGYYGPLRSVWVARNPPGFAFVEFEDPRDAADAVRELDGRTLCGCRVRVELSNGEKRSRNRGPPPSWGRRPRDDYRRRSPPPRRRSPRRRSFSRSRSRSLSRDRRRERSLSRERNHKPSRSFSRSRSRSRSNERK [SRSF3] | fulfilled |
| MYTITKGPSKLVAQRRTGPTQQQVEGRLGELLKCRQPAPPTSQPPRAQPFAQPPGPWPLSSPGPRLVFNRVNGRRAPSTSPSFEGTQETYTVAHEENVRFVSEAWQQVQQQLDGGPAGEGGPRPVQYVERTPNPRLQNFVPIDLDEWWAQQFLARITSCS [FAM195A] | fulfilled |
| MPNIKIFSGSSHQDLSQKIADRLGLELGKVVTKKFSNQETCVEIGESVRGEDVYIVQSGCGEINDNLMELLIMINACKIASASRVTAVIPCFPYARQDKKDKSRAPISAKLVANMLSVAGADHIITMDLHASQIQGFFDIPVDNLYAEPAVLKWIRENISEWRNCTIVSPDAGGAKRVTSIADRLNVDFALIHKERKKANEVDRMVLVGDVKDRVAILVDDMADTCGTICHAADKLLSAGATRVYAILTHGIFSGPAISRINNACFEAVVVTNTIPQEDKMKHCSKIQVIDISMILAEAIRRTHNGESVSYLFSHVPL [PRPS1] | not fulfilled |
| MMRFMLLFSRQGKLRLQKWYLATSDKERKKMVRELMQVVLARKPKMCSFLEWRDLKVVYKRYASLYFCCAIEGQDNELITLELIHRYVELLDKYFGSVCELDIIFNFEKAYFILDEFLMGGDVQDTSKKSVLKAIEQADLLQEEDESPRSVLEEMGLA [AP1S1] | not fulfilled |
| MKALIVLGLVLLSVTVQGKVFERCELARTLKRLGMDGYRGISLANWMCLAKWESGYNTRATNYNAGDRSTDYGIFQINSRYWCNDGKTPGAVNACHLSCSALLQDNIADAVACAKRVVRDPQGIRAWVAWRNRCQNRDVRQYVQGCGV [LYZ] | fulfilled |

Data provenance: the supplement of paper PMC5998384
